Data provenance: patent US10865207B2

tgt: MAO A (Mus musculus, UniProt Q64133)
Construct: from tissue; host or cells: whole mouse brain homogenate
Sequence (Q64133 whole entry): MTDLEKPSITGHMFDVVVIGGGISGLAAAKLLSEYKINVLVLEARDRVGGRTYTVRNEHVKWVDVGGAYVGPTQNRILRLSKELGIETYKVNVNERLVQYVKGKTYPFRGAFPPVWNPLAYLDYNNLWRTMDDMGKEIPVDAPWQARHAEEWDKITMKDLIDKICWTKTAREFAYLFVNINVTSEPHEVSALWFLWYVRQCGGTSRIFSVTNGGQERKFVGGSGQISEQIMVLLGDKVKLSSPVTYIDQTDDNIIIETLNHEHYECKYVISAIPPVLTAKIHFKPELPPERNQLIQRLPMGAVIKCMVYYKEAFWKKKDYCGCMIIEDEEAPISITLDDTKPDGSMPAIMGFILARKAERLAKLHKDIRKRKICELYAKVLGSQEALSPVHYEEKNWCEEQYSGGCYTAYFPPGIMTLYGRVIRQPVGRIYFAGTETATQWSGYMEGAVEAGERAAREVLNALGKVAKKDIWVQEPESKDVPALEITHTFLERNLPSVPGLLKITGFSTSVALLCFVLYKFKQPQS
assayDetails: MAO A 18F-FEH competition assay in mouse brain homogenate
Type: binding
particulars: 18F-FEH competition; fluorine-19 derivatives
propertyName: IC50 (nM)
Lab book: enter the figure in nM, no units written.

# input Entry [18F]c1ncccc1-c1ccc2c(n1)[nH]c1ccncc12 [Compound ^18F-4] has what IC50?
# output 1300

* * *

assayDetails: PK studies in healthy mice (dynamic PET)
Type: in vivo, NMRI mice
particulars: healthy mice; Table 1: ratio of uptake at 2 min and 30 min
Procedure: NMRI mice (weight range 25-35 g) were injected intravenously with the ^18F-labeled compounds. Up to 150 μL of 1×PBS solution with 10%-15% EtOH or dilution medium ([…]) containing the ^18F-labeled compound (2-10 MBq) were injected. Anesthesia with isoflurane was induced before injection of the tracer and maintained during the image acquisition period. […]
propertyName: ratio of uptake peak/30 min (washout from healthy brain)

{"structure": "Fc1cccnc1-c1ccc2c(n1)[nH]c1ccncc12", "result": "(3.6)"}
{"structure": "Fc1ncccc1-c1ccc2c(n1)[nH]c1ccncc12", "result": "(22)"}
{"structure": "Fc1cccc(-c2ccc3c(n2)[nH]c2ccncc23)n1", "result": "(7.0)"}
{"structure": "Fc1cncc(-c2ccc3c(n2)[nH]c2ccncc23)c1", "result": "(9.6)"}

* * *

assayDetails: PK studies in healthy mice (dynamic PET); for Mouse PK Washout (grade): key: −: poor; ∘: moderate; +: good; ++: very good; +++: excellent
Format: in vivo, NMRI mice
particulars: Table 2
propertyName: Mouse PK Washout (grade)

The cases that follow already have their Mouse PK Washout (grade) on record.
{"compound": "Fc1ccc(-c2ccc3c(n2)[nH]c2ccncc23)cn1 [Compound F-2]", "propertyName": "Mouse PK Washout (grade)", "result": "++"}
{"compound": "Fc1cncc(-c2ccc3c(n2)[nH]c2ccncc23)c1 [Comparative Example 5 (F-5)]", "propertyName": "Mouse PK Washout (grade)", "result": "+"}
{"compound": "Fc1cccnc1-c1ccc2c(n1)[nH]c1ccncc12 [Comparative Example 10 (F-10)]", "propertyName": "Mouse PK Washout (grade)", "result": "−"}
{"compound": "Fc1ncccc1-c1ccc2c(n1)[nH]c1ccncc12 [Compound F-4]", "propertyName": "Mouse PK Washout (grade)", "result": "++"}

// next entry
# input Entry Fc1ccncc1-c1ccc2c(n1)[nH]c1ccncc12 [Comparative Example 6 (F-6)] has what Mouse PK Washout (grade)?
# output ++

* * *

tgt: MAO A (Mus musculus, UniProt Q64133)
Construct: from tissue; host or cells: whole mouse brain homogenate
assayDetails: MAO A 18F-FEH competition assay in mouse brain homogenate
Format: binding
particulars: Table 2; IC50 in mouse brain homogenate
propertyName: low MAO A binding (grade)

The cases that follow already have their low MAO A binding (grade) on record.
{"molecule": "Fc1ccc(-c2ccc3c(n2)[nH]c2ccncc23)cn1 [Compound F-2]", "low MAO A binding (grade)": "+"}
{"molecule": "Fc1cncc(-c2ccc3c(n2)[nH]c2ccncc23)c1 [Comparative Example 5 (F-5)]", "low MAO A binding (grade)": "+++"}
{"molecule": "Fc1ccnc(-c2ccc3c(n2)[nH]c2ccncc23)c1 [Comparative Example 9 (F-9)]", "low MAO A binding (grade)": "+++"}
{"molecule": "Fc1ncccc1-c1ccc2c(n1)[nH]c1ccncc12 [Compound F-4]", "low MAO A binding (grade)": "+++"}
{"molecule": "Fc1cccc(-c2ccc3c(n2)[nH]c2ccncc23)n1 [Comparative Example 7 (F-7)]", "low MAO A binding (grade)": "+"}
{"molecule": "Fc1cccnc1-c1ccc2c(n1)[nH]c1ccncc12 [Comparative Example 10 (F-10)]", "low MAO A binding (grade)": "+++"}

# input Entry Fc1ccncc1-c1ccc2c(n1)[nH]c1ccncc12 [Comparative Example 6 (F-6)] has what low MAO A binding (grade)?
# output +++

* * *

tgt: Tau (Homo sapiens, UniProt P10636)
Sequence (P10636 623-708 limits assumed): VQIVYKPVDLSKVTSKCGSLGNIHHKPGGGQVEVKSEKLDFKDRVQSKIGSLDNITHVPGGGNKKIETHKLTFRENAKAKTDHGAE
pIC50: −log10 of the molar value.
propertyName: pIC50

# input Entry [18F]c1ncccc1-c1ccc2c(n1)[nH]c1ccncc12 [Compound ^18F-4] has what pIC50?
# output > 8.70

* * *

assayDetails: PK studies in healthy mice (dynamic PET); for Mouse PK Uptake (grade): key: −: poor; ∘: moderate; +: good; ++: very good; +++: excellent
Format: in vivo, NMRI mice
Design: key to the marks not given beside the values
particulars: Table 2
propertyName: Mouse PK Uptake (grade)

The cases that follow already have their Mouse PK Uptake (grade) on record.
{"structure": "Fc1ccc(-c2ccc3c(n2)[nH]c2ccncc23)cn1", "Mouse PK Uptake (grade)": "++"}
{"structure": "Fc1ncccc1-c1ccc2c(n1)[nH]c1ccncc12", "Mouse PK Uptake (grade)": "++"}
{"structure": "Fc1cncc(-c2ccc3c(n2)[nH]c2ccncc23)c1", "Mouse PK Uptake (grade)": "++"}
{"structure": "Fc1ccncc1-c1ccc2c(n1)[nH]c1ccncc12", "Mouse PK Uptake (grade)": "+++"}

# input Entry "Fc1cccc(-c2ccc3c(n2)[nH]c2ccncc23)n1" has what Mouse PK Uptake (grade)?
# output +++

* * *

tgt: Tau (Homo sapiens)
assayDetails: Competition binding to Tau in human AD brain homogenate with 18F-labeled Tau binder; for high Tau binding (grade): key: −: poor; ∘: moderate; +: good; ++: very good; +++: excellent
particulars: Table 2; fluorine-19 derivatives
Description: 20 μg of human Alzheimer disease brain homogenate was incubated with a dilution series of each test compound (1000 to 0.06 nM) in the presence of 800 Bq of ^18F-labeled Tau binder. The samples were shaken at 110 rpm for 45 min at 37° C. […] The imaging plate was analyzed after overnight exposition using a Fuji Film BAS-5000. Non-specific signal was determined with samples containing ^18F-labeled Tau-reference binder in the presence of assay buffer without brain substrate and competitor. […]
propertyName: high Tau binding (grade)

The cases that follow already have their high Tau binding (grade) on record.
{"structure": "Fc1ccncc1-c1ccc2c(n1)[nH]c1ccncc12", "high Tau binding (grade)": "−"}
{"structure": "Fc1ccc(-c2ccc3c(n2)[nH]c2ccncc23)nc1", "high Tau binding (grade)": "+++"}
{"structure": "Fc1ncccc1-c1ccc2c(n1)[nH]c1ccncc12", "high Tau binding (grade)": "+++"}
{"structure": "Fc1ccc(-c2ccc3c(n2)[nH]c2ccncc23)cn1", "high Tau binding (grade)": "+++"}
{"structure": "Fc1cccnc1-c1ccc2c(n1)[nH]c1ccncc12", "high Tau binding (grade)": "−"}

# input Entry "Fc1cccc(-c2ccc3c(n2)[nH]c2ccncc23)n1" has what high Tau binding (grade)?
# output ++

# input Entry "Fc1ccnc(-c2ccc3c(n2)[nH]c2ccncc23)c1" has what high Tau binding (grade)?
# output ++

# input Entry "Fc1cncc(-c2ccc3c(n2)[nH]c2ccncc23)c1" has what high Tau binding (grade)?
# output ++

* * *

tgt: Tau (Homo sapiens)
assayDetails: Competition binding to Tau in human AD brain homogenate with 18F-labeled Tau binder
particulars: IC50 determined in AD brain homogenate
propertyName: binding affinity for Tau (in words)

The cases that follow already have their binding affinity for Tau (in words) on record.
{"compound": "Fc1ccnc(-c2ccc3c(n2)[nH]c2ccncc23)c1 [Comparative Example 9 (F-9)]", "binding affinity for Tau (in words)": "inferior"}
{"compound": "Fc1cccnc1-c1ccc2c(n1)[nH]c1ccncc12 [Comparative Example 10 (F-10)]", "binding affinity for Tau (in words)": "poor"}
{"compound": "Fc1cncc(-c2ccc3c(n2)[nH]c2ccncc23)c1 [Comparative Example 5 (F-5)]", "binding affinity for Tau (in words)": "inferior"}
{"compound": "Fc1cccc(-c2ccc3c(n2)[nH]c2ccncc23)n1 [Comparative Example 7 (F-7)]", "binding affinity for Tau (in words)": "inferior"}

// next entry
# input Form entry - test system: Tau (Homo sapiens); read-out: binding affinity for Tau (in words); compound: Fc1ccncc1-c1ccc2c(n1)[nH]c1ccncc12 [Comparative Example 6 (F-6)]
# output poor

* * *

For each entry below, report its IC50 value.

# input Form entry - test system: amyloid-beta (Homo sapiens, UniProt P05067); read-out: IC50; compound: [18F]c1ncccc1-c1ccc2c(n1)[nH]c1ccncc12 [Compound ^18F-4]
# Sequence (P05067 whole entry): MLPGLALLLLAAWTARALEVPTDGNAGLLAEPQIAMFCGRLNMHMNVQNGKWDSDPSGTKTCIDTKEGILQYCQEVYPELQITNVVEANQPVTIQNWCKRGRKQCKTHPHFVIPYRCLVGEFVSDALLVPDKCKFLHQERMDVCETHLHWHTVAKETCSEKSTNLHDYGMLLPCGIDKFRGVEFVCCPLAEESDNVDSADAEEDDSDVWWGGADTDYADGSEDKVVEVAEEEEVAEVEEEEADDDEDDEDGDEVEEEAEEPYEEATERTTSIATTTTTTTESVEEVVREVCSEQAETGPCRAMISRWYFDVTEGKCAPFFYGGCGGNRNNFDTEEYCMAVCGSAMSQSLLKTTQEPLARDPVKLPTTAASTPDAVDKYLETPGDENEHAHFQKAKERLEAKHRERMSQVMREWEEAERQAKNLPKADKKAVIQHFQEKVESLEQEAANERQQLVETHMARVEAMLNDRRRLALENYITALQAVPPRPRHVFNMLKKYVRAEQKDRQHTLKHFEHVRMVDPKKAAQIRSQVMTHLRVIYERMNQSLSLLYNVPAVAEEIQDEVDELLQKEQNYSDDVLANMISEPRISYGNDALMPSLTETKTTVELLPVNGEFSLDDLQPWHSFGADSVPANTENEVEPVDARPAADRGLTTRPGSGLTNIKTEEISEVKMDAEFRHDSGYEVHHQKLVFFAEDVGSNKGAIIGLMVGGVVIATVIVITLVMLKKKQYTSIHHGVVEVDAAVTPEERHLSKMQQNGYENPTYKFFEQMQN
# output > 1000 nM

# input Form entry - test system: amyloid-beta (Homo sapiens, UniProt P05067); read-out: IC50; compound: "Fc1ncccc1-c1ccc2c(n1)[nH]c1ccncc12"
# output > 1000 nM

* * *

assayDetails: PK studies in healthy mice (dynamic PET); for Mouse PK De-fluorination (grade): key: −: poor; ∘: moderate; +: good; ++: very good; +++: excellent
Type: in vivo, NMRI mice
particulars: Table 2
propertyName: Mouse PK De-fluorination (grade)

The cases that follow already have their Mouse PK De-fluorination (grade) on record.
{"structure": "Fc1ccc(-c2ccc3c(n2)[nH]c2ccncc23)cn1", "Mouse PK De-fluorination (grade)": "−"}
{"structure": "Fc1cccnc1-c1ccc2c(n1)[nH]c1ccncc12", "Mouse PK De-fluorination (grade)": "−"}
{"structure": "Fc1cccc(-c2ccc3c(n2)[nH]c2ccncc23)n1", "Mouse PK De-fluorination (grade)": "−"}
{"structure": "Fc1ncccc1-c1ccc2c(n1)[nH]c1ccncc12", "Mouse PK De-fluorination (grade)": "+++"}

// next entry
# input Entry "Fc1cncc(-c2ccc3c(n2)[nH]c2ccncc23)c1" has what Mouse PK De-fluorination (grade)?
# output +
